Assay: Plasma clearance in rat
Format: ADME, organism-based

cpd_smiles: Cc1ccc(-c2ccc(F)cc2COc2ccc(CCC(=O)O)cc2)cc1
clearance / mL/min/kg: 61.2

* * *

Assay: AUC (0 to 24 hrs) in Sprague-Dawley rat at 10 mg/kg, po administered as single dose by LC-PDA-MS/MS analysis
Assay type: ADME, organism-based
Design: time < 24 hr, dose 10 mg/kg, route oral
Settings: in vivo

cpd_smiles: Cc1ccc(-c2ccc(F)cc2COc2ccc(CCC(=O)O)cc2)cc1
unit: ng·h/mL
AUC(0-t) at 24 h: 1370
//
cpd_smiles: [2H]C([2H])(Cc1ccc(OCc2cc(F)ccc2-c2ccc(C)cc2)cc1)C(=O)O
unit: ng·h/mL
AUC(0-t) at 24 h: 6280
